Test system: MES-induced seizure
Test: Maximal Electroshock Seizure (MES) test in rats, oral administration
Type: in vivo
Details: 30 mg/kg oral, 0.25 h after administration
Measurement Name: Percentage of rats in which the test compound prevented MES-induced seizure (%)

compound="Nc1ccc(Nc2cccc(N)c2)cc1 [(3-aminophenyl)-(4-aminophenyl) amine]" result=0
compound="Nc1ccc(Oc2ccc(N)cc2)cc1 [4,4′-diaminodiphenyl ether]" result=100
compound="Nc1ccc(C(=O)c2ccc(N)cc2)cc1 [4,4′-diaminobenzophenone]" result=50
compound="Nc1ccc(Cc2ccc(N)cc2)cc1 [4,4′-methylenedianiline]" result=100
compound="Nc1ccc(Sc2ccc(N)cc2)cc1 [4,4′-thiodianiline]" result=100
